target: Gal(b1-4)GlcNAc(b1-2)[Gal(b1-4)GlcNAc(b1-4)]Man(a1-3)[GlcNAc(b1-4)][Gal(b1-4)GlcNAc(b1-2)[Gal(b1-4)GlcNAc(b1-6)]Man(a1-6)]Man(b1-4)GlcNAc(b1-4)GlcNAc; assay: glycan array binding signal (z-score within array); higher = stronger binding; conditions: glycan notation: IUPAC condensed, linker removed
The sample as a whole holds a higher share of the strongest signals than the screen did.
Measured quantity: glycan array binding signal (z-score)

Query: Could you tell me which glycan array binding signal (z-score) is on file for Threefoil (Haloarcula marismortui) (protein) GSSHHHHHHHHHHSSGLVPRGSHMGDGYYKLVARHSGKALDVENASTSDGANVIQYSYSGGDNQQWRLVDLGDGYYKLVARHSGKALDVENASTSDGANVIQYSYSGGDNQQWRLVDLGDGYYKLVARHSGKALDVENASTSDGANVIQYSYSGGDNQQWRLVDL ?
Response: 8.13
